ASSAY NAME: Stability of the analytes in spiked plasma, brain, kidney and spleen matrices (autosampler, long-term, freeze-thaw)
Assay type: physicochemical, mice
MEASUREMENT CONDITIONS: brain, nominal 3.0 µg/mL, processed samples in autosampler vials 24 h room temperature
QUANTITY NAME: Stability Autosampler RE (%)

A = COc1ccc2ccc(=O)oc2c1 [HR, herniarin]
B = COc1cc2ccc(=O)oc2c(OC)c1OC [DF, dimethylfraxetin]
C = COc1cc2ccc(=O)oc2cc1OCC=C(C)C [PE, 7-O-prenylscopoletin]
Sort the entries above numerically by Stability Autosampler RE (%), high end first. Sort and list the labels as requested.
B, A, C
(B: 3.73%, A: 2.31%, C: -0.34%)

P = COc1cc2ccc(=O)oc2cc1OC [SC, scoparone]
Q = CC(C)=CCOc1ccc2ccc(=O)oc2c1 [PU, 7-O-prenylumbelliferone]
Please compare: P and Q . Report which one has the smaller Stability Autosampler RE (%) value. Indicate which entry you chose by stating its label.
P

* * *

Below: a set of entries, each annotated with reported half-life.
ASSAY NAME: Pharmacokinetic study in plasma after oral hexanic extract of Tagetes lucida, healthy and LPS-damaged mice
Format: in vivo, ICR mice
MEASUREMENT CONDITIONS: ICR, mouse, plasma, po, 10 mg/kg, LPS-damaged ICR mice, 10 mg/kg oral hexanic extract, mean ± SEM (n = 5)
# number only, unit h dropped from output

Record excerpt, results attached:
COc1ccc2ccc(=O)oc2c1 | 1.49
CC(C)=CCOc1ccc2ccc(=O)oc2c1 | 0.95

compound COc1cc2ccc(=O)oc2c(OC)c1OC , half-life observed: 1.5

compound COc1cc2ccc(=O)oc2cc1OC , half-life observed: 0.65

compound COc1cc2ccc(=O)oc2cc1OCC=C(C)C , half-life observed: 4.48

* * *

ASSAY NAME: Pharmacokinetic study in plasma after oral hexanic extract of Tagetes lucida, healthy and LPS-damaged mice
Assay type: in vivo, ICR mice
MEASUREMENT CONDITIONS: plasma, healthy ICR mice, 10 mg/kg oral hexanic extract, mean ± SEM (n = 5)
Below: a set of entries, each annotated with reported Cl/F.

COc1ccc2ccc(=O)oc2c1 | 103.7 ± 13.0 (mg/kg)/(μg/mL)/h
COc1cc2ccc(=O)oc2cc1OC | 26.64 ± 3.00 (mg/kg)/(μg/mL)/h
COc1cc2ccc(=O)oc2c(OC)c1OC | 62.45 ± 9.38 (mg/kg)/(μg/mL)/h
COc1cc2ccc(=O)oc2cc1OCC=C(C)C | 65.83 ± 10.18 (mg/kg)/(μg/mL)/h

compound CC(C)=CCOc1ccc2ccc(=O)oc2c1 , Cl/F observed: 67.37 ± 5.33 (mg/kg)/(μg/mL)/h

* * *

ASSAY NAME: Stability of the analytes in spiked plasma, brain, kidney and spleen matrices (autosampler, long-term, freeze-thaw)
Type: physicochemical, mice
MEASUREMENT CONDITIONS: brain, nominal 0.3 µg/mL, −70 °C for 30 days
QUANTITY NAME: Stability Long-Term RE (%)

COc1cc2ccc(=O)oc2cc1OC | -0.19

P = COc1cc2ccc(=O)oc2c(OC)c1OC
Q = COc1ccc2ccc(=O)oc2c1
R = CC(C)=CCOc1ccc2ccc(=O)oc2c1
List from greatest to least Stability Long-Term RE (%). Sort and list the labels as requested.
R, Q, P
